# reported protein stability index; entries follow
# Test system: Saccharomyces cerevisiae
# PROCEDURE_DETAILS: protein stability index of tFT-peptide fusion (C-terminal peptide) (PSI (0-1 scale)); higher = more stable (slower turnover)
# CONDITION_SET: genetic background: wild type; temperature: 30 C
Give only the figure.

For orientation, consider the following solved cases.
Looking up FYIDKFQVREVK [SUC2 C-terminal 12 aa] , I see its protein stability index listed as 0.683

Looking up VPGGKKTPTEAL [LSM5 C-terminal 12 aa] , I see its protein stability index listed as 0.707

---
Looking up LVYATELIGSGS [ICE2 C-terminal 12 aa] , I see its protein stability index listed as 0.7

Looking up EEEAGYSDVEME [UTP5 C-terminal 12 aa] , I see its protein stability index listed as 0.698

Looking up VDIPVDVKKLQI [BUL2 C-terminal 12 aa] , I see its protein stability index listed as 0.696

Looking up STTTVIQGEINK [LRG1 C-terminal 12 aa] , I see its protein stability index listed as 0.713

Looking up PRGQDTEDHILE [PIF1 C-terminal 12 aa] , I see its protein stability index listed as 0.692

Looking up LDKIKTDDTYTS [FYV7 C-terminal 12 aa] , I see its protein stability index listed as 0.697

Looking up RDWSSFSKDYEI [PMS1 C-terminal 12 aa] , I see its protein stability index listed as 0.699
